Measurement description: Clearance in human liver microsomes
Measured CLhep predicted values are reported for all entries that follow.
Please respond with the number in mL/min/kg and leave the unit unwritten.

Use the examples below as a reference point.
Cc1cc(NC(=O)Cn2nnc(-c3ccc(Cl)c(Cl)c3)n2)n(C2CCCCC2)n1 ... 17.4
Cc1cc(NC(=O)Cn2nnc(-c3ccccc3)n2)n(C2CCC(F)(F)CC2)n1 ... 15.9

Could you now consider this next molecule?
For this molecule ( "Cc1cc(NC(=S)Cn2nnc(-c3ccccc3)n2)n(C2CCCCC2)n1" ), measured CLhep predicted is 18.9

====

Test system: Kir3.1/Kir3.2 (Homo sapiens, UniProt P48051+P48549)
Measurement description: Activation of human GIRK1/2 expressed in HEK293 cells co-expressing rat mGlu8 by thallium flux assay
Experimental endpoint: EC50

Use the examples below as a reference point.
Cc1cc(NC(=O)Cn2nnc(-c3ccccc3)n2)n(C2CCS(=O)(=O)CC2)n1 ... > 10 µM
Cc1cc(NC(=O)Cn2nnc(-c3cccc(F)n3)n2)n(C2CCCCC2)n1 ... > 3 µM

Could you now consider this next compound?
For this compound ( CCC(C)n1nc(C)cc1NC(=O)Cn1nnc(-c2ccccc2)n1 (stereo not drawn) ), measured EC50 is > 5 µM

====

Test system: Kir3.1/Kir3.4 (Homo sapiens) (UniProt P48549+P48544)
Measurement description: Activation of human GIRK1/4 expressed in HEK293 cells co-expressing rat mGlu8 by thallium flux assay relative to control
Format: cell-based
Active and inactive are the calls of the source. The calls are words filed in the database; no cut-off is given here.
Experimental endpoint: Emax

Use the examples below as a reference point.
Cc1cc(NC(=O)Cc2nnc(-c3ccccc3)s2)n(C2CCCCC2)n1 ... > 21%
O=C(Cn1nnc(-c2ccccc2)n1)Nc1cc(C2(C(F)(F)F)CC2)nn1C1CCCCC1 ... inactive
Cc1cc(NC(=O)Cn2nnc(-c3ccccc3)n2)n(C2CCS(=O)(=O)C2)n1 (stereo not drawn) ... 75%
Cc1cc(NC(=O)Cn2nnc(-c3cccc(C(F)(F)F)c3)n2)n(C2CCCCC2)n1 ... 57%
Cc1nc(NC(=O)Cn2nnc(-c3ccccc3)n2)n(-c2ccccc2)n1 ... inactive
Cc1cc(NC(=O)Cn2cc(-c3ccccc3)nn2)n(C2CCCCC2)n1 ... 76%

Could you now consider this next molecule?
For this molecule ( "CC1(c2cc(NC(=O)Cn3nnc(-c4ccccc4)n3)n(C3CCCCC3)n2)CC1" ), measured Emax is inactive

====

Measured pEC50 values are reported for all entries that follow.
Test system: Kir3.1/Kir3.4 (Homo sapiens, UniProt P48544+P48549)
Sequence (P48549 whole entry): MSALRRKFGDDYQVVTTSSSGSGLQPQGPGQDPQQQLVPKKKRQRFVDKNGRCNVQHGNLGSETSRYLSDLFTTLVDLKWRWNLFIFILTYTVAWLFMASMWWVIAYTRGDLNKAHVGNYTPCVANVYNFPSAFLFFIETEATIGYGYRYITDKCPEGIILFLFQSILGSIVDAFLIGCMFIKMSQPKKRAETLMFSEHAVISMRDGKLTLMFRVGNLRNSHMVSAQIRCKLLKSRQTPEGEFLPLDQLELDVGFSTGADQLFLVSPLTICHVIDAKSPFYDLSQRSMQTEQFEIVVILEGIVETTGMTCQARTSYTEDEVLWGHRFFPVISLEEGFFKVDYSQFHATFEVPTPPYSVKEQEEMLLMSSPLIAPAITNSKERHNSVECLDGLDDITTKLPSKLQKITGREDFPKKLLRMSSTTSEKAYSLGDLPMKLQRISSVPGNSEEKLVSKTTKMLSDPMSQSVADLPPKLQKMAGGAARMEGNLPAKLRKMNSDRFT
Sequence (P48544 whole entry): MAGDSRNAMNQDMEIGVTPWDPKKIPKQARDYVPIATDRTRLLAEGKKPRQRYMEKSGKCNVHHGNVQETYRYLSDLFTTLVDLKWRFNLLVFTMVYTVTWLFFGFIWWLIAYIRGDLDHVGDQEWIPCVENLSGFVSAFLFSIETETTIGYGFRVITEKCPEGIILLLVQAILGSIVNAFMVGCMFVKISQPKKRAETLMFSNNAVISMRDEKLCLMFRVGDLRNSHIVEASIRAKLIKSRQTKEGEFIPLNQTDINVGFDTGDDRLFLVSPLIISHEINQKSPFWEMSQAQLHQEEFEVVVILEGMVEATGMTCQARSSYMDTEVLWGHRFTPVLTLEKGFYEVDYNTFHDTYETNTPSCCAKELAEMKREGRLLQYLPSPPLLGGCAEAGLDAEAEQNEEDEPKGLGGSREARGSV
Measurement description: Activation of human GIRK1/4 expressed in HEK293 cells co-expressing rat mGlu8 by thallium flux assay
pEC50: −log10 of the molar value.

Use the examples below as a reference point.
Cc1cc(NC(=O)Cc2nnc(-c3ccccc3)s2)n(C2CCCCC2)n1 ... < 5.00
Cc1cc(NC(=O)Cc2cccc(-c3ccccc3)c2)n(C2CCCCC2)n1 ... < 5.40
Cc1cc(NC(=O)Cn2nnc(-c3ccccc3)n2)n(CC(F)(F)F)n1 ... < 5.00
CC1CC1c1cc(NC(=O)Cn2nnc(-c3ccccc3)n2)n(C2CCCCC2)n1 (centres undefined) ... < 5.00
Cc1cc(NC(=O)Cn2nnc(-c3ccnc(F)c3)n2)n(C2CCCCC2)n1 ... 5.87

Could you now consider this next molecule?
For this molecule ( "Cc1cc(NC(=O)Cc2csc(-c3ccccc3)n2)n(C2CCCCC2)n1" ), measured pEC50 is < 5.52

====

Measured pEC50 values are reported for all entries that follow.
Test system: Kir3.1/Kir3.4 (Homo sapiens, UniProt P48544+P48549)
Measurement description: Activation of human GIRK1/4 expressed in HEK293 cells co-expressing rat mGlu8 by thallium flux assay
Would you please state pEC50, meaning minus log10 of the concentration in mol/L, as a bare number?

Cc1cc(NC(=O)Cn2nnc(-c3ccccc3)n2)n(-c2ccccc2)n1 ... 5.39
COc1cccc(-c2nnn(CC(=O)Nc3cc(C)nn3C3CCCCC3)n2)c1 ... 6.52
Cc1cc(NC(=S)Cn2nnc(-c3ccccc3)n2)n(C2CCCCC2)n1 ... 5.90
Cc1cc(NC(=O)Cn2ccc(-c3ccccc3)n2)n(C2CCCCC2)n1 ... 6.00

Could you now consider this next compound?
For this compound ( "COc1ccc(-c2nnn(CC(=O)Nc3cc(C)nn3C3CCCCC3)n2)cc1" ), measured pEC50 is 6.11

====

Test system: Kir3.1/Kir3.2 (Homo sapiens, UniProt P48051+P48549)
Measurement description: Activation of human GIRK1/2 expressed in HEK293 cells co-expressing rat mGlu8 by thallium flux assay
pEC50: −log10 of the molar value.
Mark F for pEC50 values under 6, and T for everything at or above.

Hi team, for "Cc1cc(NC(=O)Cn2nnc(-c3ccccc3)n2)n(-c2ccccc2)n1" , is the recorded pEC50 at or above 6?
F

====

Test system: Kir3.1/Kir3.4 (Homo sapiens) (UniProt P48549+P48544)
Measurement description: Activation of human GIRK1/4 expressed in HEK293 cells co-expressing rat mGlu8 by thallium flux assay relative to control
Type: cell-based
Active and inactive are the calls of the source. The rule behind the calls is not given here.
Experimental endpoint: Emax

Use the examples below as a reference point.
COc1ccc(-c2nnn(CC(=O)Nc3cc(C)nn3C3CCCCC3)n2)cc1 ... 65%
Cc1cc(NC(=O)Cn2nnc(-c3cccnc3)n2)n(C2CCCCC2)n1 ... 80%
Cc1cc(NC(=O)Cc2cccc(-c3ccccc3)c2)n(C2CCCCC2)n1 ... > 51%
Cc1cc(NC(=O)Cn2nnc(-c3ccccc3)n2)n(-c2ccccc2)n1 ... 25%
Cc1cc(NC(=O)Cn2nnc(-c3ccc(Cl)c(Cl)c3)n2)n(C2CCCCC2)n1 ... 70%
Cc1cc(NC(=O)Cn2nnc(-c3ccccc3)n2)n(CC2CCCCC2)n1 ... 58%
Cc1cc(NC(=O)Cn2nnc(-c3ccccc3)n2)n(C2CCCC2)n1 ... 84%
Cc1cc(NC(=O)Cn2nnc(-c3ccccc3)n2)n(C2CCC(C)(C)CC2)n1 ... inactive

Value sought: Emax, system Kir3.1/Kir3.4 (Homo sapiens) (UniProt P48549+P48544), item O=C(Cn1nnc(-c2ccccc2)n1)NC1CC2CCC1C2 (stereo unspecified) . Result: 7%

Value sought: Emax, system Kir3.1/Kir3.4 (Homo sapiens) (UniProt P48549+P48544), item "Cc1cc(NC(=O)Cn2nnc(-c3ccc(C(F)(F)F)cc3)n2)n(C2CCCCC2)n1" . Result: 50%

Value sought: Emax, system Kir3.1/Kir3.4 (Homo sapiens) (UniProt P48549+P48544), item "Cc1cccc(-c2nnn(CC(=O)Nc3cc(C)nn3C3CCCCC3)n2)c1" . Result: 63%

====

Test system: Kir3.1/Kir3.4 (Homo sapiens, UniProt P48544+P48549)
Sequence (P48549 whole entry): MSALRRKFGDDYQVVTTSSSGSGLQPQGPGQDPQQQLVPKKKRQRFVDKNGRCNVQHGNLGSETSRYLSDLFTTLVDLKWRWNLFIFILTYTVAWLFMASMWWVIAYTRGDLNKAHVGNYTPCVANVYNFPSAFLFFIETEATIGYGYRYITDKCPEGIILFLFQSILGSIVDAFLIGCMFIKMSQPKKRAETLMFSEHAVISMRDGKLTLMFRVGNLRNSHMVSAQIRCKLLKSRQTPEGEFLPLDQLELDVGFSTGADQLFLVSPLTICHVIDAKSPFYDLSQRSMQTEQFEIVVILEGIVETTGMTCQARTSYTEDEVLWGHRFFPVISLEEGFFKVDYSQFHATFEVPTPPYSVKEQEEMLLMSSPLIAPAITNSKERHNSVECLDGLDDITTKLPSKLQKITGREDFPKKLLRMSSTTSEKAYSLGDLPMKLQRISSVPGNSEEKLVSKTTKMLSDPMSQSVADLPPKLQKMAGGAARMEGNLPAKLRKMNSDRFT
Sequence (P48544 whole entry): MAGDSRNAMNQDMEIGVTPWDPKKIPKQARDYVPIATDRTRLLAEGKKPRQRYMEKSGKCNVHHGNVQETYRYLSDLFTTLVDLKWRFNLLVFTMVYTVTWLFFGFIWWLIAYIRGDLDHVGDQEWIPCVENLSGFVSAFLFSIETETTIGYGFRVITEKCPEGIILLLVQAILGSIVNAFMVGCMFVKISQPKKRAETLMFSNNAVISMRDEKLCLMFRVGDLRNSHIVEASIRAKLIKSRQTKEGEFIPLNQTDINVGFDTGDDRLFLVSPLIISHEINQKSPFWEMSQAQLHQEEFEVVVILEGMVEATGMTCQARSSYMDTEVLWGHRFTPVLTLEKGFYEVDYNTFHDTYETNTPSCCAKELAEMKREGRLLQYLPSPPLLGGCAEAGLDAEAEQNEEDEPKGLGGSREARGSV
Measurement description: Activation of human GIRK1/4 expressed in HEK293 cells co-expressing rat mGlu8 by thallium flux assay
Measured EC50 values are reported for all entries that follow.
Please respond with the number in nM and leave the unit unwritten.

Cc1cc(NC(=O)Cn2nnc(-c3ccc(Cl)c(C)c3)n2)n(C2CCCCC2)n1 ... 1510

For this compound ( "Cc1cccc(-c2nnn(CC(=O)Nc3cc(C)nn3C3CCCCC3)n2)c1" ), measured EC50 is 435
